// data source = the RNAGym collection of RNA variant scans (doi:10.7554/elife.80360)

B1: CPEB3 Ribozyme (parent)
chain: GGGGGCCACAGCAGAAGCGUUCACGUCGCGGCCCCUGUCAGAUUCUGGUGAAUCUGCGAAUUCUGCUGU

- Variants of: B1
- PROTOCOL_SUMMARY: self-cleavage, relative activity (ratio to wild type); higher = more cleavage; co-transcriptional
Use self-cleavage to assign classes; range list: low-valued: < 0.2; mid-valued: ≥ 0.2 and < 0.8; high-valued: ≥ 0.8

# CHAIN, LABEL
measured = [
    ("GGGGGCCACUGCAGAAGCGUUCACGUCGCGGCCCCUGUCAGAUUCUGGUGAAUCUGCGAAUUCUGCGGU [A10U U67G]", "high-valued"),
    ("GGGGGCCACAGCAGAUGCGUUCACGUCGCGGCCCCUGUCAGAUUCUGGUGAACCUGCGAAUUCUGCUGU [A16U U53C]", "mid-valued"),
    ("GGGGGCCACAGCCGAAGCGUUCACGUGGCGGCCCCUGUCAGAUUCUGGUGAAUCUGCGAAUUCUGCUGU [A13C C27G]", "low-valued"),
    ("GGGGGCCACUGCAGAUGCGUUCACGUCGCGGCCCCUGUCAGAUUCUGGUGAAUCUGCGAAUUCUGCUGU [A10U A16U]", "high-valued"),
    ("GGGGGCCACAACAGAAGCGUUCACGUCGCGGCCCCUGUCAGAUUCUGGUGAAUCUGCGAAUUCUGGUGU [G11A C66G]", "high-valued"),
    ("GGGGGCCACAGCAGAAGCGUUCACGUCGCGGCGCCUGUCAGAUUCUGGUGAAUCUGCGGAUUCUGCUGU [C33G A59G]", "mid-valued"),
    ("GGGGGCCACAGCAGAAGCGUUCACGUCGCGGCCCCUGUCAGAUUCUGGUGAAUCUGCGAAUUCUCCUUU [G65C G68U]", "mid-valued"),
    ("GGGGGCCACGGCAGAAGCGUUCACGUCGCGGCCCCUGUCAGAUUCUGGUGAAUCUGCGAUUUCUGCUGU [A10G A60U]", "mid-valued"),
    ("GGGGGCCACAGCAGAAGCGUGCACGUCGCCGCCCCUGUCAGAUUCUGGUGAAUCUGCGAAUUCUGCUGU [U21G G30C]", "mid-valued"),
    ("GGGGGCCACCGCAGAAGCGUUCACGUCGCGGCCCCUGUCAGAUUCUGGUGAAUCUGCAAAUUCUGCUGU [A10C G58A]", "high-valued"),
    ("GGGGGCCACAGCAGCAGCGUUCACGUCGCGGCCCCUGUCAGAUUCUGGUGAAUCGGCGAAUUCUGCUGU [A15C U55G]", "mid-valued"),
    ("GGGGGCCACAGCAGAAGCGUUGACGUCGCGGCCCCUAUCAGAUUCUGGUGAAUCUGCGAAUUCUGCUGU [C22G G37A]", "low-valued"),
    ("GGGGGCCACAGCAGAAGCGUUCACGUCGCGGCGCCUGUCAGCUUCUGGUGAAUCUGCGAAUUCUGCUGU [C33G A42C]", "mid-valued"),
    ("GGGGGCCACAGCAGAAGCGUUCACGUCGCGGCCCCUUUCAGAGUCUGGUGAAUCUGCGAAUUCUGCUGU [G37U U43G]", "mid-valued"),
    ("CGGGGCCACAGCAGAAGCGUUCACGUCGCGGCCCCUGUCAGAUUCGGGUGAAUCUGCGAAUUCUGCUGU [G1C U46G]", "mid-valued"),
    ("GGGAGCCACAGCAGAAGCGUUCACGUCGCGGCCCCUGUCGGAUUCUGGUGAAUCUGCGAAUUCUGCUGU [G4A A40G]", "mid-valued"),
    ("GGGGGCCACAGCAGAAGCGUUCACGUCGCGGCCCCUGUCAGAUUCUGGUGAAUCUGCGAACUCUGCUGA [U61C U69A]", "high-valued"),
    ("GGGGGCCACAGCAGAAGCGUUCACGUCGCGGCCCCUGUCAGAUUCCGGUGAAUCUGCGCAUUCUGCUGU [U46C A59C]", "mid-valued"),
    ("GGGGGCCACAGCAGAAGCGUUAACGUCGCGGCCCCUGUCAGAUUCUCGUGAAUCUGCGAAUUCUGCUGU [C22A G47C]", "low-valued"),
    ("GGGGGCCACAGCAGAAGCGUUCACGUCGCGGCCCCUGUCAGAUUCUGGUGAAUCUGCGAAUUCUGCGGG [U67G U69G]", "high-valued"),
    ("GGGGGCCACAGCAGAGGCGUUCACGUCGCGGCCCCUGUCAAAUUCUGGUGAAUCUGCGAAUUCUGCUGU [A16G G41A]", "mid-valued"),
    ("GGGGGCCACAGCAGAAGCGUUCACGUCGCGGCCCCUGUCAGAUUCUGGUGUAUCUGCAAAUUCUGCUGU [A51U G58A]", "high-valued"),
    ("GGGGGCCACUGCAGAAGCGUUCACGUCGCGGCCCCUGUCAGAUUCCGGUGAAUCUGCGAAUUCUGCUGU [A10U U46C]", "high-valued"),
    ("GGGGGCCACAGCAGAAGCGUUCACGUCGCGGACCCUGUCAGAUUCUGGUGAAUCUGCGAAUUCUUCUGU [C32A G65U]", "mid-valued"),
    ("GGGGGCCACAGCAGAAGCGUUCACGUCGCGGCCCCUGUCAGAUUGUGGUGAUUCUGCGAAUUCUGCUGU [C45G A52U]", "high-valued"),
    ("GGGGCCCACAGCAGAAGCGUUCACGUCGCGGCCCCUGUCAGAUUCUGGUGAAUCUGCGCAUUCUGCUGU [G5C A59C]", "low-valued"),
    ("GGGGGCCACAGCAGAAGCGUUCACGUCGCGGCCCCUGUGAGAUUCUGGUGAAUCCGCGAAUUCUGCUGU [C39G U55C]", "mid-valued"),
    ("GGGGGCUACAGCAGAAGCGUUCACGUCGCGGCCCCUGUCAGAUUCUGGAGAAUCUGCGAAUUCUGCUGU [C7U U49A]", "high-valued"),
    ("GGGGGCCACAGCAGAAGCGUUCACGUCGCGGCCCAUGUCAGAUUCUGGUGAAUCUGAGAAUUCUGCUGU [C35A C57A]", "mid-valued"),
    ("GGGGGCCACAGCAGAAGGGUUCACGUUGCGGCCCCUGUCAGAUUCUGGUGAAUCUGCGAAUUCUGCUGU [C18G C27U]", "low-valued"),
    ("GGGGGCCACAGCAGAAGCGUUCACGUCGCGGCUCCUGUCAGAUUCUGGUGAAUCUGCUAAUUCUGCUGU [C33U G58U]", "high-valued"),
    ("GGUGUCCACAGCAGAAGCGUUCACGUCGCGGCCCCUGUCAGAUUCUGGUGAAUCUGCGAAUUCUGCUGU [G3U G5U]", "low-valued"),
    ("GGGGGCCACACCAGAAGCGUUCACGUCGCGGCCCCUGUCAGAUUCUGUUGAAUCUGCGAAUUCUGCUGU [G11C G48U]", "high-valued"),
    ("GGGGGCCUCAGCAGAAGCGUUCACGUCGCGGCCCCUGUCAGAUUCUGGUGAAUCUGCGAAUGCUGCUGU [A8U U62G]", "high-valued"),
    ("GGGGGCCACAGCAGAUGGGUUCACGUCGCGGCCCCUGUCAGAUUCUGGUGAAUCUGCGAAUUCUGCUGU [A16U C18G]", "low-valued"),
    ("GGGGGCCACAGCAGAAGCGAUCACGUCGCGGCCCCUGUCUGAUUCUGGUGAAUCUGCGAAUUCUGCUGU [U20A A40U]", "low-valued"),
    ("GGGGGCCACAGCAGAAGCGUUCACGUCGCGGCCCCUGUCAGAUUCUGGUGAAUCUGCGAAUUCAUCUGU [U64A G65U]", "high-valued"),
    ("GGGGGCCACAGCAGAAGCGUUCACGUCGCGGCCCCUGUCAAAUUCUGGUGCAUCUGCGAAUUCUGCUGU [G41A A51C]", "mid-valued"),
    ("GGGGGCCACAGCAGAAGCGAUCACGUCGCGGCCCCUGUCAGAUUAUGGUGAAUCUGCGAAUUCUGCUGU [U20A C45A]", "low-valued"),
    ("GGGGGCCACAGCAGGAGCGUUCACGUCGCGGCCCCUGUCAGAUUCGGGUGAAUCUGCGAAUUCUGCUGU [A15G U46G]", "high-valued"),
    ("GGGGGCCACAGCAGAAGCGUUCACGUCGCGGCCCCUGUCAGAUUCUGGUGAAGCUGGGAAUUCUGCUGU [U53G C57G]", "mid-valued"),
]
